# Lookup of reported slope keyed by entry
- Test Target: Alpha-2C adrenergic receptor (Homo sapiens) (UniProt P18825)
- Sequence (P18825 whole entry, looked up): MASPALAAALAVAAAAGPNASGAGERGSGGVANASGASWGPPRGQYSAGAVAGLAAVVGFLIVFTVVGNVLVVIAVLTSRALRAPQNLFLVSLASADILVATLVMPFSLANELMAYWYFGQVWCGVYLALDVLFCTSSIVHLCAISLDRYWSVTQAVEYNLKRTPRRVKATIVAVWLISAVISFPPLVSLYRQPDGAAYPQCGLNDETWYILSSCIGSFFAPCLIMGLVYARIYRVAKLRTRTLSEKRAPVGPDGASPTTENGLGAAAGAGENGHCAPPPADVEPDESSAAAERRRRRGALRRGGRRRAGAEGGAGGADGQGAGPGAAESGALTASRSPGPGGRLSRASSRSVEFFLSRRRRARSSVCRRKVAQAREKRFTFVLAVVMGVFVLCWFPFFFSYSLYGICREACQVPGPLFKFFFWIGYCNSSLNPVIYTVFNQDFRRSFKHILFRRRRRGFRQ
- Assay Name: compounds altering alpha2C-coupled GIRK flux – cell-based, HEK293 alpha2C/GIRK1/2, thallium flux, primary screen (AID 624);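 note: slope of fluorescence ratio to pre-addition baseline per second over 15 to 24 s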
- Cond: thallium flux BTC fluorescence, at 10 µM, actives lie on both sides

Molecule: Cc1ccc(-n2c(Cn3cnc4ccccc43)nnc2SCC(=O)O)cc1
slope: 0.00571
--
Molecule: COc1cc(C2N3CC4(C)CN2CC(C)(C3)C4)ccc1O (stereo unspecified)
slope: 0.0063
--
Molecule: CSc1nc(C)cc(Oc2ccc(=O)n(C)n2)n1
slope: 0.00506
--
Molecule: O=C1CN(Cc2ccccc2)C(=NCc2ccco2)S1
slope: 0.00487
--
Molecule: CC(=O)c1cccc(NC(=O)N2CCCc3ccccc32)c1
slope: 0.00357
--
Molecule: CS(=O)(=O)N(Cc1nc2sc3c(c2c(=O)[nH]1)CCCC3)C1CCCCC1
slope: 0.00352
--
Molecule: CCN1CCCC1CN=Cc1c(O)n(-c2ccccc2)c(=O)c2ccccc12 (stereo unspecified)
slope: 0.00513
--
Molecule: Cn1c(SCC(N)=O)nnc1C1CCN(C(=O)NCc2ccccc2)CC1
slope: 0.00348
--
Molecule: Cc1cc(C(=O)Nc2ccccc2C#N)n(-c2ccccc2)n1
slope: 0.00747
--
Molecule: COc1nc(NCCc2ccc(OC)c(OC)c2)nc(NC(C)(C)CO)n1
slope: 0.00642
--
Molecule: O=C(NCCN1C(=O)C2C3C=CC(C3)C2C1=O)Nc1ccccn1 (stereo unspecified)
slope: 0.00714
